Reference source for all entries: PubChem BioAssay AID1210

- Target Or System: Estrogen receptor beta (Homo sapiens) (UniProt Q92731)
- Sequence (Q92731 whole entry, looked up): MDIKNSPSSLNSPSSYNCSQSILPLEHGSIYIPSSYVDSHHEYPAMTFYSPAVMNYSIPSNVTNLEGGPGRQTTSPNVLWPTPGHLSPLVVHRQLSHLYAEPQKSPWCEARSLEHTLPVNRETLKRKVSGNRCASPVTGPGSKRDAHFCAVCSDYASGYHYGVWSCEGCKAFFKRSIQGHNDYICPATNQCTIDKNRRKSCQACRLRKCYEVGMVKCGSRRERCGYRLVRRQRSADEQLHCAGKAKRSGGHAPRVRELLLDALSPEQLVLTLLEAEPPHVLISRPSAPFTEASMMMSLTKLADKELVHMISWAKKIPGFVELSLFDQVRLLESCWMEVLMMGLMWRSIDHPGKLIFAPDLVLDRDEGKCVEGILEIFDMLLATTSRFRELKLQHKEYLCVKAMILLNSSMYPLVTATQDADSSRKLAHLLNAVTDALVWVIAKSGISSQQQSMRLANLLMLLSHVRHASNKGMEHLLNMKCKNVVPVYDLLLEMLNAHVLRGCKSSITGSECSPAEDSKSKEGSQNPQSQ
- Protocol Text: displacement of fluorescent estrogen from ERbeta – cell-based, Cos7 ERbeta-GFP, flow cytometry, primary screen (AID 1210);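 further: 0% = DMSO vehicle wells and 100% = complete loss of labeled estradiol signal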
- Assay Context: fluorescent estrogen binding, at 10 µM, stronger effect = higher value
Rule: inhibition of 30% or more gives T; anything lower gives F.

Solved cases (2 shown):
Molecule	Assigned Class
Cc1ccc(-c2nn3c(C)nnc3s2)cc1NC(=O)COc1ccc(Cl)cc1	F
COc1ccc(CNC(=O)COC(=O)c2cc(-c3ccco3)nc3ccccc23)cc1	F

Kindly determine if inhibition recorded for `Cc1cccc(N2CCN(C(=O)c3cc4c(=O)n(C)c5ccccc5c4n3C)CC2)c1C` is above or exactly 30%.
T

Kindly determine if inhibition recorded for `COC1=C/C(=C/c2c(N)n3cc(C)sc3nc2=O)C=CC1=O` is above or exactly 30%.
T

Kindly determine if inhibition recorded for `CCc1ccc(-c2nn(-c3ccccc3)cc2CSC(=N)N)cc1` is above or exactly 30%.
T

Kindly determine if inhibition recorded for O=C(c1cccs1)N1N=C(c2ccccc2)CC1c1ccc(O)cc1 (stereo unspecified) is above or exactly 30%.
T

Kindly determine if inhibition recorded for `C[C@@H]1O[C@@H](Oc2c(-c3cc(O)c(O)c(O)c3)oc3cc(O)cc(O)c3c2=O)[C@H](O)[C@H](O)[C@H]1O` is above or exactly 30%.
T

Kindly determine if inhibition recorded for CCOC(=O)C1CCCN(C(=O)c2cc3ncc(Br)cn3n2)C1 (stereo unspecified) is above or exactly 30%.
F

Kindly determine if inhibition recorded for `COc1ccc(N=Cc2sc(O)c3ccccc23)cc1` is above or exactly 30%.
T

Kindly determine if inhibition recorded for `Nc1cc2sc(-c3ccc(C(=O)O)cc3)nc2cc1Cl` is above or exactly 30%.
F

Kindly determine if inhibition recorded for CC(C)COc1ccc2c(c1)c1c3n2CCNC3CCC1 (stereo unspecified) is above or exactly 30%.
F

###

This listing pairs compounds with measured inhibition.
- Target Or System: Estrogen receptor beta (Homo sapiens)
- Protocol Text: displacement of fluorescent estrogen from ERbeta – cell-based, Cos7 ERbeta-GFP, flow cytometry, primary screen (AID 1210);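 further: 0% = DMSO vehicle wells and 100% = complete loss of labeled estradiol signal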
- Assay Context: fluorescent estrogen binding, ligand binding inhibition, at 0.1 µM, stronger effect = higher value
Could you give me the number in %? Just the number is fine.

Example results:
Compound	Output Unit	inhibition
Cc1cc(C(=O)Nc2sc3c(c2C#N)CCC3)no1	%	23
O=C(O)c1ccc(NS(=O)(=O)c2ccc3c(c2)C2C=CCC2C(c2ccccc2F)N3)cc1 (centres undefined)	%	9

Estrogen receptor beta (Homo sapiens) / inhibition / `COc1ccc(Cc2nnc(NC(=O)Cc3cccs3)s2)cc1` : value?
29

Estrogen receptor beta (Homo sapiens) / inhibition / `Cc1cc(C(=O)O)ccc1-n1c(C)ccc1C` : value?
49

Estrogen receptor beta (Homo sapiens) / inhibition / `Cc1ccccc1Nc1nnc(SCC(=O)NCc2ccco2)s1` : value?
18

Estrogen receptor beta (Homo sapiens) / inhibition / `Oc1ccc(-c2nccc(-c3cccs3)n2)cc1` : value?
14

Estrogen receptor beta (Homo sapiens) / inhibition / `Cc1nn(-c2ccc(Cl)cc2)c2sc(C(=O)N3CCN(c4ccccn4)CC3)cc12` : value?
40

Estrogen receptor beta (Homo sapiens) / inhibition / `O=C(O)c1cc(-c2ccco2)nc2ccc(Br)cc12` : value?
9

Estrogen receptor beta (Homo sapiens) / inhibition / `CCOC(=O)c1c(C)[nH]c(C)c1C(=O)CSc1nnc(-c2cc(OC)c(OC)c(OC)c2)o1` : value?
7

Estrogen receptor beta (Homo sapiens) / inhibition / `Clc1ccc2nc(-c3ccccn3)c(Nc3ccc4c(c3)OCO4)n2c1` : value?
2

Estrogen receptor beta (Homo sapiens) / inhibition / `O=C(Nc1ccc2oc(-c3ccc4ccccc4c3)nc2c1)c1cccs1` : value?
36

Estrogen receptor beta (Homo sapiens) / inhibition / `O=C(c1cc2ncc(Br)cn2n1)N1CCN(C(=O)c2ccco2)CC1` : value?
67

Estrogen receptor beta (Homo sapiens) / inhibition / `N#CC(C(=O)Nc1ccc(Cl)cc1)=C1Nc2ccccc2N1` : value?
21

Estrogen receptor beta (Homo sapiens) / inhibition / CC(=O)N1c2ccc3ccccc3c2C2C=CCC2C1c1ccc(Br)cc1 (centres undefined) : value?
3

Estrogen receptor beta (Homo sapiens) / inhibition / COc1ccc(OC)c(C2Nc3c(Cl)ccc(C(=O)O)c3C3C=CCC32)c1 (centres undefined) : value?
52

Estrogen receptor beta (Homo sapiens) / inhibition / `CCc1ccc2nc(NC(=O)c3ccc4c(=O)[nH]c(CN5CCOCC5)nc4c3)sc2c1` : value?
10

Estrogen receptor beta (Homo sapiens) / inhibition / `Cc1nc2ccccc2c(=O)n1/N=C/c1c(O)ccc2oc3c(c12)CCCC3` : value?
34

Estrogen receptor beta (Homo sapiens) / inhibition / CC1CC(C(F)(F)C(F)(F)F)n2nc(C(=O)O)cc2N1 (centres undefined) : value?
27

###

- Target Or System: Estrogen receptor beta (Homo sapiens)
- Protocol Text: displacement of fluorescent estrogen from ERbeta – cell-based, Cos7 ERbeta-GFP, flow cytometry, primary screen (AID 1210);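 further: 0% = DMSO vehicle wells and 100% = complete loss of labeled estradiol signal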
- Assay Context: fluorescent estrogen binding, ligand binding inhibition, at 0.1 µM, stronger effect = higher value
Rule: inhibition of 30% or more gives T; anything lower gives F.

Solved cases (6 shown):
Molecule Smiles	Target Or System	Assigned Class
COc1cc(O)c2c(=O)c3c(OC)c(O)ccc3oc2c1	Estrogen receptor beta (Homo sapiens)	F
CCCCCc1nnc(NC(=O)Cc2cccs2)s1	Estrogen receptor beta (Homo sapiens)	F
NC(=O)c1cccc2c1C(=O)N(C1CCCCC1)C2	Estrogen receptor beta (Homo sapiens)	F
COc1cc(CCC(=O)OCC(=O)Nc2ncc(Cl)cc2Cl)cc(OC)c1OC	Estrogen receptor beta (Homo sapiens)	F
CCn1c(=NC(=O)c2ccc(N3C(=O)CCC3=O)cc2)sc2c(OC)ccc(OC)c21	Estrogen receptor beta (Homo sapiens)	T
O=c1cc(CSc2nnnn2-c2ccccc2)nc(Nc2ccc(F)cc2)[nH]1	Estrogen receptor beta (Homo sapiens)	F

Kindly determine if inhibition recorded for `O=S(=O)(NCc1csc(-c2cccnc2)n1)c1cccs1` is above or exactly 30%.
F

###

- Target Or System: Estrogen receptor beta (Homo sapiens) (UniProt Q92731)
- Protocol Text: displacement of fluorescent estrogen from ERbeta – cell-based, Cos7 ERbeta-GFP, flow cytometry, primary screen (AID 1210);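 further: 0% = DMSO vehicle wells and 100% = complete loss of labeled estradiol signal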
- Assay Context: fluorescent estrogen binding, ligand binding inhibition, at 0.1 µM, stronger effect = higher value
Rule: inhibition of 30% or more gives satisfied; anything lower gives not satisfied.

Molecule	Assigned Class
Cc1ccc(S(=O)(=O)Cc2ccc(C(=O)O)o2)cc1	not satisfied
Oc1ccc(N=Cc2ccc(O)c(O)c2)cc1	not satisfied
O=c1cc(-c2ccccc2Cl)oc2c(Br)ccc(O)c12	not satisfied
O=C1C2CC=C(Cl)CC2C(=O)N1CCCCCCN1C(=O)C2CC=C(Cl)CC2C1=O (stereo unspecified)	satisfied
COc1cc2c3c(c1)/C(=C1/SC(NC(C)=O)=NC1=O)C(=O)N3C(C)(C)C=C2C	not satisfied
Cc1cc(C)c2c(c1)NC(c1cc3c(cc1Br)OCO3)C1CC=CC21 (stereo unspecified)	satisfied

Kindly determine if inhibition recorded for COc1cccc(-c2[nH]nc3c2C(c2ccoc2)C(C#N)=C(N)O3)c1 (stereo unspecified) is above or exactly 30%.
not satisfied

Kindly determine if inhibition recorded for CCOC(=O)C1=C(C)NC(=O)NC1c1ccco1 (stereo unspecified) is above or exactly 30%.
not satisfied

Kindly determine if inhibition recorded for `O=C(Oc1ccc(-c2cnc3ccccc3n2)cc1)c1ccc(Br)o1` is above or exactly 30%.
not satisfied

Kindly determine if inhibition recorded for `O=C(NC1CCN(C(=O)N2c3ccccc3Sc3ccccc32)CC1)c1ccccc1Cl` is above or exactly 30%.
not satisfied

Kindly determine if inhibition recorded for `NC(=O)c1c(NC(=O)c2cccs2)sc2c1CCCCCC2` is above or exactly 30%.
satisfied

###

- Target Or System: Estrogen receptor beta (Homo sapiens)
- Protocol Text: displacement of fluorescent estrogen from ERbeta – cell-based, Cos7 ERbeta-GFP, flow cytometry, primary screen (AID 1210);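 further: 0% = DMSO vehicle wells and 100% = complete loss of labeled estradiol signal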
- Assay Context: fluorescent estrogen binding, at 10 µM, stronger effect = higher value
This listing pairs compounds with measured inhibition.
Could you give me the number in %? Just the number is fine.

Example results:
Compound	inhibition [%]
O=c1oc2cc(O)ccc2c2c1CCC2	8
Cc1nn(-c2ccccc2)c(/N=C/c2ccc(O)cc2)c1-c1ccccc1	78
O=C1C=CC(O)(c2cc(=O)c3c(O)cc(O)cc3o2)C=C1	29
Cc1ccc(Cn2c(NC(=O)c3ccco3)nc3ccccc32)cc1	10
Cc1nc2ccccc2c(=O)n1/N=C/c1c(O)ccc2oc3c(c12)CCCC3	47

Which inhibition is listed for `O=c1cc(CSc2nnnn2-c2ccccc2)nc(Nc2ccc(F)cc2)[nH]1` ?
0

Which inhibition is listed for `O=c1cc(-c2ccco2)oc2c1ccc1ccccc12` ?
49

###

- Target Or System: Estrogen receptor beta (Homo sapiens)
- Protocol Text: displacement of fluorescent estrogen from ERbeta – cell-based, Cos7 ERbeta-GFP, flow cytometry, primary screen (AID 1210);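 further: 0% = DMSO vehicle wells and 100% = complete loss of labeled estradiol signal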
- Assay Context: fluorescent estrogen binding, at 10 µM, stronger effect = higher value
The source made the active and inactive calls.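 How the source made its calls: active means blocks over 70% of labeled estradiol binding at 10 µM, or over a set limit at 100 nM; inactive means the rest.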
Property Label: inhibition

Example results:
Molecule	inhibition
O=C(Nc1ccc2nn(-c3ccccc3)nc2c1)c1ccc2c(c1)OCO2	27% (inactive)
C=C1c2ccc(OC)cc2NC(=O)N1c1ccccc1	15% (inactive)
CCSc1nnc(NC(=O)C2Cc3ccccc3CN2C(=O)c2ccco2)s1 (stereo not given)	45% (inactive)
Cc1cc(C)n2nc(SCc3cc(=O)oc4cc(O)ccc34)nc2n1	19% (inactive)

Please look at the following molecule next.
Estrogen receptor beta (Homo sapiens) / inhibition / `COC(=O)C1=C(O)/C(=C\c2ccc(CNC(=O)C(=O)Nc3ccc(C)c(C)c3)o2)N=C1C` : value?
42% (inactive)
